Target: T1, human interleukin-18 (Homo sapiens, UniProt Q14116)
T1 sequence (Q14116 37-193): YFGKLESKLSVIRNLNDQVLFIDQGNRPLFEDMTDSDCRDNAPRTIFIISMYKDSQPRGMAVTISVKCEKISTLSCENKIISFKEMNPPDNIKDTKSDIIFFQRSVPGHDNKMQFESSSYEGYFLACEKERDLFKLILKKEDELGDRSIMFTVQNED
Assay: Luminex screening first step: monoclonal antibodies binding on IL-18
Conditions: IL-18 attached to Luminex beads
Quantity: Monoclonal antibodies binding on IL-18, Fluorescence intensity

Molecule: Antibody 131B4: monoclonal anti-IL-18 antibody; VH SEQ ID NO 18, 103 or 109, VK SEQ ID NO 19 (antibody, V domains shown) VH: EVQVQQSGAELVKPGASVKLSCTASGFKIKDTYIHWLKQRPEQGLEWIGRIDPANGNTIYGSKFQGKATITADTSSNTAYIQLSSLTSGDTAVYFCAGYVWFAYWGQGTLVTVSA VL: DAVLTQTPLSLPVSLGDQASISCTSSQSLVHSNGNTYLHWYLQKPGQSPKLLIYKVSDRFSGVPDRFSGSGSGTDFTLMITRVEAEDLGVYFCSQSSLVPWTFGGGTKLEVK
Result: 24 838
--
Molecule: Antibody 108F8: monoclonal anti-IL-18 antibody; VH SEQ ID NO 11, VK SEQ ID NO 12 (antibody, V domains shown, Antibody 108F8 VH variable domain sequence; Antibody 108F8 VK variable domain sequence) VH: QIQLVQSGPDSKKPGETVKLSCRASGYTFTNYGMNWVKQAPGKGLKWMGWINTYSGVPTYADDFKGQFAFSLETSAATAFLQINNLKDEDTATYFCAREGYSTTRSMDYWGQGTSVTVSS VL: DIVMSQSPSSLAVSAGEKVTMSCKSSQSLLDSRTRKNYLVWYQQKPGQSPKLLIYWASTRGSGVPDRFTGSGSGTDFTLTISSVQAEDLAVYYCKQSYNLRTFGGGTKLEIK
Result: 25 126
